Assay: Determination of the solubility in cosmetic solvents
Conditions: C12-15 Alkylbenzoate, saturated solution stirred 7 days at room temperature, HPLC
property: solubility Finsolv TN (%)
Report the value in % with no unit label.

Sample answers from the record:
[[record]]
compound = "Cc1cc(CO)c(O)c(-n2nc3ccccc3n2)c1"
value_observed = 0.02

[[record]]
compound = "CCCCC(CC)C(=O)OCc1cc(C)cc(-n2nc3ccccc3n2)c1O (centres unmarked)"
value_observed = 42

[[record]]
compound = "Cc1cc(COCCC(C)C)c(O)c(-n2nc3ccccc3n2)c1"
value_observed = 37

[[record]]
compound = "CCCCC(CC)COCc1cc(C)cc(-n2nc3ccc(Cl)cc3n2)c1O (centres unmarked)"
value_observed = 19


Next up:
Consider the compound `Cc1cc(COC(=O)CC(C)C)c(O)c(-n2nc3ccccc3n2)c1` and give its recorded solubility Finsolv TN.
8

This collection of values is drawn from patent US8883829B2.
